# method.description: Acute toxicity in mice
# conditions: mouse, in vivo, po, read-out: LD50 p.o.
Provide the recorded LD50 for the entries that follow.
Give bare numbers, in mg/kg.

Some solved cases for reference:
>  <compound>
CC(=O)N1N=C(c2ccc(N)cc2)c2cc3c(cc2CC1C)OCO3 (stereo not shown) [Example 15 (16)]

>  <result.unit>
mg/kg

>  <LD50>
130

$$$$
>  <compound>
CCC(=O)Nc1ccc(C2=NN(C(=O)CC)C(C)Cc3cc4c(cc32)OCO4)cc1 (stereo not shown) [Example 45]

>  <result.unit>
mg/kg

>  <LD50>
206

$$$$

I would be grateful if you could provide LD50 for each of the following entries.
1. CNC(=O)N1N=C(c2ccc(N)cc2)c2cc3c(cc2CC1C)OCO3 (stereo not shown) [Example 98]
2. CC(=O)N1N=C(c2ccc(NC(=O)C(F)(F)F)cc2)c2cc3c(cc2CC1C)OCO3 (stereo not shown) [Example 62]

96.6
160

I would be grateful if you could provide LD50 for each of the following entries.
1. CC(=O)Nc1ccc(C2=NN(C(C)=O)C(C)Cc3cc4c(cc32)OCO4)cc1 (stereo not shown) [Example 42]
2. CC1=NN=C(c2ccc(NC(=O)CN)cc2)c2cc3c(cc2C1)OCO3 [Example 66]

[185, 281]
